# Species on record: Rattus norvegicus
# test.description: DrugMatrix - Regimen: Daily Repeat
# Assay type: toxicity, organism-based, Sprague-Dawley
# Parameters: regimen Daily Repeat, gender Male, age 6-8 weeks
# test.context: in vivo, po, 0 mg/kg, 120 h, tissue Plasma, route oral GAVAGE, dose level Control, time 5 day, […]
quantity.measured: PHOSPHORUS (mg/dL)
Response body: numeric value in mg/dL, unit text excluded.

Worked set:
Enquiry: Find the measured PHOSPHORUS of O=c1oc2ccccc2c(O)c1Cc1c(O)c2ccccc2oc1=O and report it.
Return: 10.32

Enquiry: Find the measured PHOSPHORUS of O=C(O)CCCc1ccc(N(CCCl)CCCl)cc1 and report it.
Return: 11.5

Continuing:
Enquiry: Find the measured PHOSPHORUS of OC(Cn1cncn1)(Cn1cncn1)c1ccc(F)cc1F and report it.
Return: 11.5

----------
# Organism: Rattus norvegicus
# test.description: DrugMatrix - Regimen: Daily Repeat
# Type: toxicity, organism-based, Sprague-Dawley
# Parameters: regimen Daily Repeat, gender Male, age 6-8 weeks
# test.context: in vivo, po, 0 mg/kg, 120 h, tissue Blood, route oral GAVAGE, dose level Control, time 5 day, […]
Consider the following molecules and their measured ABSOLUTE SEGMENTED NEUTROPHIL readings.

Worked set:
Enquiry: Find the measured ABSOLUTE SEGMENTED NEUTROPHIL of O=c1oc2ccccc2c(O)c1Cc1c(O)c2ccccc2oc1=O [DICUMAROL] and report it.
Return: 970 CELLS/uL

Enquiry: Find the measured ABSOLUTE SEGMENTED NEUTROPHIL of CC(C)(Oc1ccc(Cl)cc1)C(=O)O [CLOFIBRIC ACID] and report it.
Return: 2551.33 CELLS/uL

Enquiry: Find the measured ABSOLUTE SEGMENTED NEUTROPHIL of CN(C)c1nc(N(C)C)nc(N(C)C)n1 [ALTRETAMINE] and report it.
Return: 922.5 CELLS/uL

Continuing:
Enquiry: Find the measured ABSOLUTE SEGMENTED NEUTROPHIL of CCC(C)n1ncn(-c2ccc(N3CCN(c4ccc(OCC5COC(Cn6cncn6)(c6ccc(Cl)cc6Cl)O5)cc4)CC3)cc2)c1=O (centres undefined) [ITRACONAZOLE] and report it.
Return: 3070.33 CELLS/uL

Enquiry: Find the measured ABSOLUTE SEGMENTED NEUTROPHIL of CCOC(=O)C1=C(COCCN)NC(C)=C(C(=O)OC)C1c1ccccc1Cl (centres undefined) [AMLODIPINE] and report it.
Return: 922.5 CELLS/uL

Enquiry: Find the measured ABSOLUTE SEGMENTED NEUTROPHIL of O=NN(CCCl)C(=O)NC1CCCCC1 [LOMUSTINE] and report it.
Return: 922.5 CELLS/uL

Enquiry: Find the measured ABSOLUTE SEGMENTED NEUTROPHIL of Cc1noc(NS(=O)(=O)c2ccc(N)cc2)c1C [SULFISOXAZOLE] and report it.
Return: 1340.67 CELLS/uL

Enquiry: Find the measured ABSOLUTE SEGMENTED NEUTROPHIL of C[C@H]1O[C@@H](O[C@H]2[C@@H](O)C[C@H](O[C@H]3[C@@H](O)C[C@H](O[C@H]4CC[C@@]5(C)[C@H](CC[C@@H]6[C@@H]5C[C@@H](O)[C@]5(C)[C@@H](C7=CC(=O)OC7)CC[C@]65O)C4)O[C@@H]3C)O[C@@H]2C)C[C@H](O)[C@@H]1O [DIGOXIN] and report it.
Return: 554.33 CELLS/uL

Enquiry: Find the measured ABSOLUTE SEGMENTED NEUTROPHIL of CC(C)C(=O)Nc1ccc([N+](=O)[O-])c(C(F)(F)F)c1 [FLUTAMIDE] and report it.
Return: 614 CELLS/uL

Enquiry: Find the measured ABSOLUTE SEGMENTED NEUTROPHIL of Cc1oncc1C(=O)Nc1ccc(C(F)(F)F)cc1 [LEFLUNOMIDE] and report it.
Return: 1034 CELLS/uL

Enquiry: Find the measured ABSOLUTE SEGMENTED NEUTROPHIL of C[C@@H]1CN(c2c(F)c(N)c3c(=O)c(C(=O)O)cn(C4CC4)c3c2F)C[C@H](C)N1 [SPARFLOXACIN] and report it.
Return: 922.5 CELLS/uL

Enquiry: Find the measured ABSOLUTE SEGMENTED NEUTROPHIL of OC(Cn1cncn1)(Cn1cncn1)c1ccc(F)cc1F [FLUCONAZOLE] and report it.
Return: 3070.33 CELLS/uL

Enquiry: Find the measured ABSOLUTE SEGMENTED NEUTROPHIL of O=C(O)CCCc1ccc(N(CCCl)CCCl)cc1 [CHLORAMBUCIL] and report it.
Return: 3070.33 CELLS/uL

Enquiry: Find the measured ABSOLUTE SEGMENTED NEUTROPHIL of Cc1ccc(-c2cc(C(F)(F)F)nn2-c2ccc(S(N)(=O)=O)cc2)cc1 [CELECOXIB] and report it.
Return: 3070.33 CELLS/uL

----------
Consider the following compounds and their measured POTASSIUM readings.
# Organism: Rattus norvegicus
# test.description: DrugMatrix - Regimen: Daily Repeat
# Type: toxicity, organism-based, Sprague-Dawley
# Set-up: regimen Daily Repeat, gender Male, age 6-8 weeks
# test.context: in vivo, po, 0 mg/kg, 72 h, tissue Plasma, route oral GAVAGE, dose level Control, time 3 day, […]
Response body: numeric value in MEQ/L, unit text excluded.

Enquiry: Find the measured POTASSIUM of O=C(O)CCCc1ccc(N(CCCl)CCCl)cc1 [CHLORAMBUCIL] and report it.
Return: 5.95

----------
# Organism: Rattus norvegicus
# test.description: DrugMatrix - Regimen: Daily Repeat
# Type: toxicity, organism-based, Sprague-Dawley
# Design: regimen Daily Repeat, gender Male, age 6-8 weeks
# test.context: in vivo, po, 0 mg/kg, 120 h, tissue Blood, route oral GAVAGE, dose level Control, time 5 day, […]
quantity.measured: ABSOLUTE MONOCYTE (CELLS/uL)
Response body: numeric value in CELLS/uL, unit text excluded.

Worked set:
Enquiry: Find the measured ABSOLUTE MONOCYTE of CCOC(=O)C1=C(COCCN)NC(C)=C(C(=O)OC)C1c1ccccc1Cl (stereo not drawn) and report it.
Return: 134.17

Enquiry: Find the measured ABSOLUTE MONOCYTE of O=C(O)CCCc1ccc(N(CCCl)CCCl)cc1 and report it.
Return: 376.5

Attention now turns to another entry.
Enquiry: Find the measured ABSOLUTE MONOCYTE of C[C@H]1O[C@@H](O[C@H]2[C@@H](O)C[C@H](O[C@H]3[C@@H](O)C[C@H](O[C@H]4CC[C@@]5(C)[C@H](CC[C@@H]6[C@@H]5C[C@@H](O)[C@]5(C)[C@@H](C7=CC(=O)OC7)CC[C@]65O)C4)O[C@@H]3C)O[C@@H]2C)C[C@H](O)[C@@H]1O and report it.
Return: 49.5

----------
# Species: Rattus norvegicus
# test.description: DrugMatrix - Regimen: Daily Repeat
# Assay type: toxicity, organism-based, Sprague-Dawley
# Design: regimen Daily Repeat, gender Male, age 6-8 weeks
# test.context: in vivo, iv, 0 mg/kg, 72 h, tissue Plasma, dose level Control, time 3 day, vehicle 100 % SALINE
Starred links: 1 amine or outer side, 2 acyl side, 3 side chain; linkers in the order of their positions; H or OH if unused. Positions of bridges follow the written chain, without caps; N, C: chain ends. Non-standard residues stand in square brackets, D forms with d. Residues, ends and D or L forms follow the SMILES beside them. Chains are numbered I, II in the order given. Actinocin(9to1) = Cc1c2oc3c(C)ccc(C(=O)[*:1])c3nc-2c(C(=O)[*:2])c(N)c1=O; NMeV = CN[C@H](C(=O)O)C(C)C; Sar = CNCC(=O)O
Consider the following compounds and their measured LIPASE readings.
Response body: numeric value in u/L, unit text excluded.

Enquiry: Find the measured LIPASE of Cc1ccc(N(CC2=NCCN2)c2cccc(O)c2)cc1 and report it.
Return: 10.33

Enquiry: Find the measured LIPASE of CC[C@]1(O)C[C@H]2CN(CCc3c([nH]c4ccccc34)[C@@](C(=O)OC)(c3cc4c(cc3OC)N(C=O)[C@H]3[C@@](O)(C(=O)OC)[C@H](OC(C)=O)[C@]5(CC)C=CCN6CC[C@]43[C@@H]65)C2)C1 and report it.
Return: 9.5

Enquiry: Find the measured LIPASE of Cc1c2oc3c(C)ccc(C(=O)N[C@@H]4C(=O)N[C@H](C(C)C)C(=O)N5CCC[C@H]5C(=O)N(C)CC(=O)N(C)[C@@H](C(C)C)C(=O)O[C@@H]4C)c3nc-2c(C(=O)N[C@@H]2C(=O)N[C@H](C(C)C)C(=O)N3CCC[C@H]3C(=O)N(C)CC(=O)N(C)[C@@H](C(C)C)C(=O)O[C@@H]2C)c(N)c1=O [DACTINOMYCIN] (I: T[dV]P[Sar][NMeV] / II: T[dV]P[Sar][NMeV]; ester I:1-I:C, II:1-II:C; linker I:N-II:N via Actinocin(9to1)) and report it.
Return: 10.67

Attention now turns to another entry.
Enquiry: Find the measured LIPASE of COc1cc2c3cc1Oc1cc(ccc1O)C[C@@H]1c4c(cc(OC)c(O)c4Oc4ccc(cc4)C[C@@H]3N(C)CC2)CC[N+]1(C)C.[Cl-] and report it.
Return: 9.83
